# TESTED_TARGET: pooled human IgG
Could you please report measured Enzyme Activity Endpoint Assay (purified): IgG for the items listed next?
One number for each entry, in ng/µL.

1. PRT-79 (protein) MANQEIRYSEVTPKTITSVWTKGVTPPAKFTQNEDVFHAPYVANQGWYDITKTFNGKDDLLCGAATAGNMLHWWFDQNKEQIEAYLKKHPEKQKIMFGDQELLDVRKVINTKDDQTNSELFNYFKDKAFPNLSARRLGVMPDLVLDMFINGYRLNVGKTQTTDVNRTYQDKDPRGGIFDAVFTRGDQSKLLTSRHDFKEKNLKEISDLIKQELTEGKALGLSHTYANVRINHVINLWGADFDSEGNLEAIYVTDSDSNASIGMKKYFVGVNSAGKVAISAKEIEEDNIGAQVLGLFTLSTGQDIWEQTN	72
2. IdeZ2 (protein) EVVEVWPYGQNPNGKTEILSQTEDSESLQRLRDIEDFQAEKKMQNVVYTKWLDGVDVKDHDFRKIVDGNIAYYATPLLNGRGFYDINKDFNRDSDKCAAAVAANMFHYWLDINRDNVDRFLRQNPEKHGIIELPDGQLKLSDFLNTYESDHGYRDKSKLFDFISNNFNGPVWTDKLLDNYINGYAYNYKYGRTIEDPTKNTSKINFFKEVFNEKILTNNHSIRNQNEFSVLLSEALYTGKAIGLSYGPAGLRHSLGHIISVWGADLDADGNVVAIYVTDSDDKKLTIGDERVGLKRYKISTDDENRLRLTAYEETHNTGGQIRGLWTLDTGKYAWADYFDKTEQTGTDQAEQ	0
3. PRT-691 (protein) MQITTVWTKGVTPPTPEQFRYNNEDVIHAPYLPNQGWYDITKTFNGKDNLLCGAATAGNMLHWWFDQNKTEIEAYLSKYPEKQKIIFNNQELFDLRAAINTKDSQTNSQLFNYFRDKAFPNLSARQLGVMPDLVLDMFINGYYLNVFKTQSTDVNRPYQDRDKRGGIFDAVFNRGDQTTLLTARHDLKNKTLNDISTLIKQELSSGKALALSHTYANVSISHVINLWGADFNAEGNLEAIYVTDSDANASIGMKKYYVGVNAHGKVAISAKKIEGENIGAQVLGLFTLSSGKDIWQKLSLEHHHHHH	110

In the following, a different protein is considered.
PRT-59 (protein) MANQEIRYSEVTPYHVTSVWTKGVTPPANFTQGEDVFHAPYVANQGWYDITKTFNGKDDLLCGAATAGNMLHWWFDQNKDQIKRYLEEHPEKQKINFNGEQMFDVKEAIDTKNHQLDSKLFEYFKEKAFPYLSTKHLGVFPDHVIDMFINGYRLSLTNHGPTPVKEGSKDPRGGFFDAVFTRGDQSKLLTSRHDFKEKNLKEISDLIKKELTEGKALGLSHTYANVRINHVINLWGADFDSNGNLKAIYVTDSDSNASIGMKKYFVGVNSAGKVAISAKEIKEDNIGAQVLGLFTLSTGQDSWNQTN yielded Enzyme Activity Endpoint Assay (purified): IgG of 8
